system: HepG2 (human hepatocyte carcinoma) cells; experiment: Cytotoxicity, resazurin reduction assay, HepG2; format: cell-based
CC50: recorded values
measured endpoint: CC50

molecule | result
COc1cc(C(=O)N(C)C)ccc1-c1cc2nccc(-c3ccc4ccncc4c3)c2o1 [OGHL00250] | > 50 µM
Cc1ccccc1-c1ccc(-c2nc(-c3ccc(CN(C)CCC(=O)O)c(F)c3)no2)cc1OCC1CC1 [OGHL00165] | > 50 µM
Oc1ccc2[nH]cc(CCCCN3CC=C(c4ccccc4)CC3)c2c1 [OGHL00007] | > 50 µM
